# system-name: Androgen receptor (Homo sapiens) (UniProt P10275)
# Sequence (whole entry): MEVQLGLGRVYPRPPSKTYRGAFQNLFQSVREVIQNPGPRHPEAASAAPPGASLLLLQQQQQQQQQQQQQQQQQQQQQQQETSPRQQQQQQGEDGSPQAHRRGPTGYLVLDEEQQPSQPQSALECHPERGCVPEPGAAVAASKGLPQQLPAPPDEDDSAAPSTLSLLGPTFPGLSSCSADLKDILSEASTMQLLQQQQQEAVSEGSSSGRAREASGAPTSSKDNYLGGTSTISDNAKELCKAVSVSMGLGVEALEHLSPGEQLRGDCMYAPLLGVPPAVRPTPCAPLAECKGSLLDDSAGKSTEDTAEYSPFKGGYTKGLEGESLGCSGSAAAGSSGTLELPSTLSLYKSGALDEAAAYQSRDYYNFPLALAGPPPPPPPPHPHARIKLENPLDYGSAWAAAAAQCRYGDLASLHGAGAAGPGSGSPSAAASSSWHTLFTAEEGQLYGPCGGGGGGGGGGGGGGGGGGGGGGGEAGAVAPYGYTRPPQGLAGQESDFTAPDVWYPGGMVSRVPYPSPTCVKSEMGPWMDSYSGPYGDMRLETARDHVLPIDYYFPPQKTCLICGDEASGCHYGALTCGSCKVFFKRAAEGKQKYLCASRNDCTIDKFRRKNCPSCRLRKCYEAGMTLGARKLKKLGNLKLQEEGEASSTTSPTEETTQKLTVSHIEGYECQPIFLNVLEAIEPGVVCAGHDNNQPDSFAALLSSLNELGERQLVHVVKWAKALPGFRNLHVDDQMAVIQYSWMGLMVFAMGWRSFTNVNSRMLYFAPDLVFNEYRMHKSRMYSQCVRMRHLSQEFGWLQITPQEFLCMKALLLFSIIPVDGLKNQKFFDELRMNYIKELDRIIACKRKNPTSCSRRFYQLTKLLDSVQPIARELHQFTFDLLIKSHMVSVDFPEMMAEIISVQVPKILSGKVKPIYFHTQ
# assay-details: Induction of androgen receptor degradation in human VCaP cells at 0.1 uM after 24 hrs by Western blotting analysis relative to control
# Assay type: cell-based
Provide the reported Activity of each item.

State, for Androgen receptor (Homo sapiens) (UniProt P10275), measured Activity of the molecule listed here: N#Cc1ccc(N2CCC3(CCN(c4ccc(C(=O)N5CCCN(C6CCN(c7ccc8c(c7)C(=O)N(C7CCC(=O)NC7=O)C8=O)CC6)CCC5)cc4)CC3)C2)cc1Cl (stereo not drawn) 54%

State measured Activity of the molecule C[C@H]1CC2(CCN(c3ccc(C(=O)N4CCN(C5CN(c6ccc7c(c6)C(=O)N(C6CCC(=O)NC6=O)C7=O)C5)CC4)cc3)CC2)CN1c1ccc(C#N)c(Cl)c1 (stereo partly drawn) with Androgen receptor (Homo sapiens) (UniProt P10275). > 95%

Look up and report Activity, with Androgen receptor (Homo sapiens) (UniProt P10275) as system, for C[C@H]1CC2(CCN(c3ccc(C(=O)N4CCN(C5CN(c6ccc7c(c6)C(=O)N(C6CCC(=O)NC6=O)C7=O)C5)CC4)cc3)CC2)CN1c1ccc(C#N)c(C(F)(F)F)c1 (stereo partly drawn) > 95%

* * *

# system-name: Androgen receptor (Homo sapiens) (UniProt P10275)
# assay-details: Induction of androgen receptor degradation in human VCaP cells at 1 uM after 24 hrs by Western blotting analysis relative to control
# Assay type: cell-based
Give Activity for every item shown.
Expressed in %, but write only the number.

Report the value of Activity obtained on Androgen receptor (Homo sapiens) (UniProt P10275) for N#Cc1ccc(N2CCC3(CCN(c4ccc(C(=O)N5CC6CC(C5)CN(C5CCN(c7ccc8c(c7)C(=O)N(C7CCC(=O)NC7=O)C8=O)CC5)C6)cc4)CC3)C2)cc1Cl (stereo unspecified) . 90

Answer briefly: Activity recorded on Androgen receptor (Homo sapiens) (UniProt P10275) for C[C@H]1N(c2ccc(C#N)c(Cl)c2)CCC12CCN(c1ccc(C(=O)N3CCN(C4CN(c5ccc6c(c5)C(=O)N(C5CCC(=O)NC5=O)C6=O)C4)CC3)cc1)CC2 (stereo partly specified) 91

Quote Activity with test system Androgen receptor (Homo sapiens) (UniProt P10275) for N#Cc1ccc(N2CCC3(CCN(C(=O)c4ccc(C(=O)N5CCN(CC6CCN(c7ccc8c(c7)C(=O)N(C7CCC(=O)NC7=O)C8=O)CC6)CC5)cc4)CC3)C2)cc1Cl (stereo unspecified) 33

Please indicate recorded Activity of N#Cc1ccc(N2CCC3(CCN(c4ccc(C(=O)N5CCC6(C5)CN(C5CCN(c7ccc8c(c7)C(=O)N(C7CCC(=O)NC7=O)C8=O)CC5)C6)cc4)CC3)C2)cc1Cl (stereo unspecified) measured with Androgen receptor (Homo sapiens) (UniProt P10275). 82

* * *

# system-name: Androgen receptor (Homo sapiens)
# assay-details: Induction of androgen receptor degradation in human VCaP cells at 0.1 uM after 24 hrs by Western blotting analysis relative to control
# Format: cell-based
Exercise: state measured Activity for each of the compounds provided.
All answers are understood in %, so give the number only.

Respond only with Activity recorded for N#Cc1ccc(N2CCC3(CCN(C(=O)c4ccc(N5CCN(C6CCN(c7ccc8c(c7)C(=O)N(C7CCC(=O)NC7=O)C8=O)CC6)CC5)cc4)CC3)C2)cc1Cl (stereo not drawn) 43

Tell us which Activity value is on record for N#Cc1ccc(N2CCC3(CCN(c4ccc(C(=O)N5CCCN(C6CN(c7ccc8c(c7)C(=O)N(C7CCC(=O)NC7=O)C8=O)C6)CC5)cc4)CC3)C2)cc1Cl (stereo not drawn) 70

* * *

# system-name: Cytochrome P450 2C8 (Homo sapiens)
# Sequence (P10632 whole entry): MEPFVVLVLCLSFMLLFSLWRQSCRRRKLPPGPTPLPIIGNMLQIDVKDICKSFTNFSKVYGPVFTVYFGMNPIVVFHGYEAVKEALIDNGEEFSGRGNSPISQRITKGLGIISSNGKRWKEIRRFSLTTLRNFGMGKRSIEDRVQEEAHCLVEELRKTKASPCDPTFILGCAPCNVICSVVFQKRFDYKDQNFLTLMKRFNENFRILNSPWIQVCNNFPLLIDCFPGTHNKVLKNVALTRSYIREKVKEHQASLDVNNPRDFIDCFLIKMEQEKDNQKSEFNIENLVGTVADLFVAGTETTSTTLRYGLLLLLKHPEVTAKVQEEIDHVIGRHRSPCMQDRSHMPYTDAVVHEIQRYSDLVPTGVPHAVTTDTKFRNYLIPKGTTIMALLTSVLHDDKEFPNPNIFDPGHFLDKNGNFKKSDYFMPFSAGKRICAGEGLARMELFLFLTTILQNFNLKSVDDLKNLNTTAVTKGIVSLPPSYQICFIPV
measurement-type: IC50

Check the records and state IC50 for C[C@H]1CC2(CCN(c3ccc(C(=O)N4CCN(C5CN(c6ccc7c(c6)C(=O)N(C6CCC(=O)NC6=O)C7=O)C5)CC4)cc3)CC2)CN1c1ccc(C#N)c(Cl)c1 (stereo partly specified) > 10 µM

* * *

# assay-details: Drug concentration in ICR mouse plasma at 10 mg/kg, po measured after 1 hr
# Type: ADME, organism-based
measurement-type: concentration at 1 h
Answer by giving the amount and then stating its unit.

Please report the measured concentration at 1 h for C[C@H]1CC2(CCN(c3ccc(C(=O)N4CCN(C5CCN(c6ccc7c(c6)C(=O)N(C6CCC(=O)NC6=O)C7=O)CC5)CC4)cc3)CC2)CN1c1ccc(C#N)c(Cl)c1 (stereo partly specified) 238 ng/mL

Identify the reported concentration at 1 h for the following entry. N#Cc1ccc(O[C@H]2CC[C@H](NC(=O)c3ccc(N4CCC(CN5CCN(c6cc7c(cc6F)C(=O)N(C6CCC(=O)NC6=O)C7=O)CC5)CC4)nn3)CC2)cc1Cl (stereo partly specified) [BAVDEGALUTAMIDE] 55 ng/mL

Report measured concentration at 1 h; entry is C[C@H]1CC2(CCN(c3ccc(C(=O)N4CCN(C5CN(c6ccc7c(c6)C(=O)N(C6CCC(=O)NC6=O)C7=O)C5)CC4)cc3)CC2)CN1c1ccc(C#N)c(Cl)c1 (stereo partly specified) 495 ng/mL

Determine from records and report concentration at 1 h for C[C@H]1CC2(CCN(c3ccc(C(=O)N4CCN(C5CN(c6ccc7c(c6)C(=O)N(C6CCC(=O)NC6=O)C7=O)C5)CC4)cc3)CC2)CN1c1ccc(C#N)c(F)c1 (stereo partly specified) 134 ng/mL

Indicate the recorded concentration at 1 h value for this compound: C[C@H]1CC2(CCN(c3ccc(C(=O)N4CCN(C5CN(c6ccc7c(c6)C(=O)N(C6CCC(=O)NC6=O)C7=O)C5)CC4)cc3)CC2)CN1c1cnc(C#N)c(C(F)(F)F)c1 (stereo partly specified) 571 ng/mL

Return concentration at 1 h for the following compound: C[C@H]1CC2(CCN(c3ccc(C(=O)N4CCN(C5CN(c6ccc7c(c6)C(=O)N(C6CCC(=O)NC6=O)C7=O)C5)CC4)cc3)CC2)CN1c1ccc(C#N)c(C(F)(F)F)c1 (stereo partly specified) 31 ng/mL
